Measured % Binding, listed per entry.
- study system: EphB6 (receptor of Table 1)
- assay details: EphB receptor specificity panel (% binding)
Give the value, in units of %, as a plain number.

{"binder": "AHTFPYPHPKPH (Panned on EphB1) [AHTFPYPHPKPH peptide (SEQ ID NO:3)]", "% Binding (%)": 0}
{"binder": "GPVADAWLVYPR (Panned on EphB4) [GPVADAWLVYPR peptide (SEQ ID NO:32)]", "% Binding (%)": 6}
{"binder": "TNYLFSPNGPIA (Panned on EphB4; non-biotinylated form) [TNYLFSPNGPIA peptide (SEQ ID NO:24)]", "% Binding (%)": 7}
{"binder": "GPVSKAWQETET (Panned on EphB4) [GPVSKAWQETET peptide (SEQ ID NO:31)]", "% Binding (%)": 16}
{"binder": "SHWPVLPFAHWQ (Panned on EphB2) [SHWPVLPFAHWQ peptide (SEQ ID NO:12)]", "% Binding (%)": 10}

Query block: % Binding lookup needed for DHWYYTPWQPIE (Panned on EphB2) [DHWYYTPWQPIE peptide (SEQ ID NO:9)] , thanks.
Result block: 2

Query block: % Binding lookup needed for NPVIGPIQRAWT (Panned on EphB4) [NPVIGPIQRAWT peptide (SEQ ID NO:27)] , thanks.
Result block: 0

Query block: % Binding lookup needed for DALNDWLLFRPW (Panned on EphB4) [DALNDWLLFRPW peptide (SEQ ID NO:20)] , thanks.
Result block: 16

Hello, the source for this data is patent US20100150834A1, in case you need it.
